Provenance of the data: patent US20120195831A1

target: T1, Her2 on CHO cells (CHO-Her2) (UniProt P04626 23-1255, limits assumed); assay: FACS on CHO-Her2 cells, purified IgG, R-PE anti-mouse IgG
T1 construct: whole, on cells
Assay Endpoint: binding result

588F42 (antibody, V domains shown, Purified mouse IgG from a hybridoma; also called 588F42-HC; 588F42-LC) VH: EVQLQQSGPELVKPGASVKMSCKASGYTFTSYVMHWVKQKPGQGLEWLGYINPYNDGTKYNEKFKGKATLTSDKSSSTAYMELISLTSEDSAVYYCAREASYGNPFAYWGQGTLVTVSA VL: DIVMTQSPASLSASVGETVTITCRTSENIYSYLAWFQQKQGNSPQLLVYNTKTLAEGVPSRFSGSGSGTQFSLKINSLQPEDFGNYYCQHHYDTPWTFGGGTKLEIK :: no binding
588E14 (antibody, V domains shown, Purified mouse IgG from a hybridoma; also called 588E14-HC; 588E14-LC) VH: EVQLQQSGPELVGPGESVKISCKGSGYAFTDYGMHWVKQSHAKRLEWIGVITIYDGHTNYNQNFKGKAALTVDKSSNTAYLELARMTSEDSAIYYCARGDYDLFWYLDVWGAGTSVTVSS VL: DIVMTQTPLSLTVSLGDQASISCRSSQNIKHSDGNTYLEWYLQKPGQSPKLLIYKVSNRFSGVPDRFSGSGSGTDFTLKISRVEAEDLGVYFCFQGSHVPLTFGAGTKLELKR :: no binding
PO-1G2-B6 (antibody, V domains shown, Purified mouse IgG from a hybridoma; also called PO-1G2-B6-HC; PO-1G2-B6-LC) VH: EVQLQQSGPELVKPGASVKISCKASGYSFTGYHIHWMKQSHVESLEWIGRINPYSGVTDYNQNFKDKANLTVDQSSSTAYMELHSLTSEDSAFYYCARTDYYGPWFAYWGQGTLVTVSA VL: DIQMTQSPLSLPVSLGDQASISCRSSPSLVHSNGNTYLHWYLQKPGQSPKLLIYTVSNRFSGVPDRFSGSGSGTDFTLKINRVEAEDLGVYFCSQTTHVPWTFGGGTKLEIKR :: no binding
